- procedure_text: compounds binding Alexa647 anti-His antibody – biochemical, small-molecule microarray, 635 nm fluorescence, artefact control for SMM control protein annotation, primary screen (AID 1128);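 note: score merges feature fluorescence with signal-to-noise for each printed compound spot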
- condition_set: higher = more signal
Use 1 as the dividing line for composite z-score, with the line itself on the Condition met side and lower values as Condition not met.

C=CCN1Cc2ccccc2[C@@H]2OC(c3ccc(OCCCO)cc3)=N[C@]2(CCS(=O)(=O)c2ccccc2)C1=O: Condition met

In plain terms: is recorded composite z-score at least 1 for [N-]=[N+]=Nc1ccccc1[C@H]1OC(c2ccc(OCCCO)cc2)=N[C@@]1(CCS(=O)(=O)c1ccccc1)C(=O)NCc1ccccc1 ?
Condition met

In plain terms: is recorded composite z-score at least 1 for O=C1[C@@]23C=C(Br)[C@H](C[C@@H]2COC3)[C@]12CO2 ?
Condition not met

In plain terms: is recorded composite z-score at least 1 for COCCOC(=O)N1C(=O)[C@@]2(c3cc(C#CC4=CCCCC4)ccc31)[C@H](c1ccc(OCCO)cc1)N1[C@H](c3ccccc3)[C@H](c3ccccc3)OC(=O)[C@H]1[C@@H]2C(=O)N1CCc2cc(OC)c(OC)cc2C1 ?
Condition not met

In plain terms: is recorded composite z-score at least 1 for C=CCNC(=O)[C@@H]1[C@H]2C(=O)O[C@H](c3ccccc3)[C@H](c3ccccc3)N2[C@H](c2ccc(OCCO)cc2)[C@@]12C(=O)N(C(=O)OCCOC)c1ccc(C#CCC(C(=O)OC)C(=O)OC)cc12 ?
Condition met

###

Below, each entry is listed with its recorded composite z-score.
- assayed_system: Follistatin (Homo sapiens)
- procedure_text: FST protein binding to printed compounds – biochemical, small-molecule microarray, 635/667 nm fluorescence, primary screen (AID 1132)
- condition_set: 635 nm fluorescence, higher = more signal
Give the figure by itself; no unit, no explanation.

Look over these answered cases.
CC(C)C(=C=CC[C@H](O)c1ccc(CO)o1)CCO: 1.01
NC(=O)[C@@H]1[C@H]2C(=O)O[C@H](c3ccccc3)[C@H](c3ccccc3)N2[C@H](c2ccc(O)cc2)[C@@]12C(=O)Nc1ccc(C#CC3=CCCCC3)cc12: 1.02

# next compound below
Tell me its composite z-score on Follistatin (Homo sapiens): COc1ccc([Si](C)(C)[C@@H]2[C@@H](CCO)O[C@]3(C(=O)N(Cc4cccc(N5CCOC5=O)c4)c4ccccc43)[C@H]2C)cc1
1

###

Below, each entry is listed with its recorded z-score.
- procedure_text: compound effects on lung adenocarcinoma cell viability – A549, calcein-AM fluorescence, 48 h, basal, profiling panel (AID 1162); note: test concentration not given here
- condition_set: higher = more signal
Give the figure by itself; no unit, no explanation.

Look over these answered cases.
COc1ccc([C@H]2C[C@H]3C(Br)=C[C@@]2(CO)C(=O)[C@]32CO2)cc1: -0.0583
C=CCC(OC(C)=O)[C@@H]1[C@@H](N(Cc2cc3ccccc3o2)C(=O)Cc2ccc(OC)cc2)c2cc(OCCCO)ccc2N1C(=O)c1ccc2ccccc2c1 (some centres undefined): 0.0348
COc1ccc([Si](C)(C)[C@@H]2[C@@H](CCO)O[C@]3(C(=O)N(Cc4cccc(N5CCOC5=O)c4)c4ccccc43)[C@H]2C)cc1: -0.687

# next compound below
Provide only the value of recorded z-score for Cc1ccc(S[C@]2(C(=O)O)CC(=O)N(C(C)C)[C@@H]2c2ccc(CO)cc2)cc1
0.716

Source listed as PubChem BioAssay.
